PROTOCOL: gradient 5% acetonitrile 3 min, to 50% in 2 min, to 85% in 15 min, held 3 min, 100 µL/min
ASSAY_CONTEXT: column: Zorbax Extend-C18 2.1 x 50 mm; eluents: water / acetonitrile, 0.1% formic acid
MEASUREMENT_KIND: RP-LC retention time (s)
Give bare numbers, in s.

These solved cases illustrate the format of a correct answer.
molecule=CCCn1ccc2sc(C)c(C(=O)NCCN3CCCCCC3)c2c1=O measurement_unit=s measured_number=657
molecule=NC(=O)C1CCN(C(=O)CCc2nnc3c4cc(-c5ccc(Cl)cc5)nn4ccn23)CC1 measurement_unit=s measured_number=671
molecule=CSc1cccc(NC(=O)Nc2ccccc2C(N)=O)c1 measurement_unit=s measured_number=856
molecule="O=C1c2ccccc2NC(c2cc(Cl)cc(Cl)c2O)N1CCc1ccccn1 (stereo not given)" measurement_unit=s measured_number=723

For record `COc1cc(NC(=O)Cn2c(C)cc(-c3nnc(C)o3)c2C)cc(OC)c1` the listed RP-LC retention time is 748

----------
Provide the reported RP-LC retention time of each item.
PROTOCOL: gradient 5% acetonitrile 3 min, to 50% in 2 min, to 85% in 15 min, held 3 min, 100 µL/min
ASSAY_CONTEXT: column: Zorbax Extend-C18 2.1 x 50 mm; eluents: water / acetonitrile, 0.1% formic acid
One number for each entry, in s.

These solved cases illustrate the format of a correct answer.
compound=O=C(Nc1ccccc1Br)c1ccc(OC(F)F)cc1 measured_number=914
compound=CCC(=O)N1CCc2c(C(=O)NC3CCCCC3)cccc21 measured_number=831
compound=COc1ccc(CC(=O)N2CCN(c3nc4ccncc4n(C)c3=O)CC2)c(Cl)c1 measured_number=645
compound="CC1CCc2c(C(=O)NCCc3ccccc3)csc2C1 (stereo not drawn)" measured_number=1080
compound=Cc1cccc(N(C)C(=O)Cn2cnc3nc4c(cc3c2=O)CCCC4)c1 measured_number=705
compound=COc1ccc(NC(=O)c2ccc(C(=N)N(C)C)cc2)c(C(=O)Nc2ccc(Cl)cn2)c1 measured_number=725
compound=CC1=C(c2ccc(C)cc2)S(=O)(=O)N=C1N1CCCN(C(=O)c2ccccc2C)CC1 measured_number=898
compound=CCOc1ccc(-c2noc(CN3C(=O)COc4ccc(S(=O)(=O)CC)cc43)n2)cc1OC measured_number=873
compound=CCn1cc(CN2CCC(C(=O)NCc3ccco3)CC2)c2ccccc21 measured_number=658
compound="CC(C)c1cc(C(=O)Nc2ccc(F)c(Cl)c2)nn1C1CCS(=O)(=O)C1 (stereo not drawn)" measured_number=997

State recorded RP-LC retention time for all listed compounds.
1. Cn1c(=O)c(N2CCN(C(=O)c3ccc(Cl)cc3)CC2)nc2ccncc21
2. CC1CCCCN1CCNS(=O)(=O)c1ccccc1-c1nc(-c2ccc(F)cc2)no1 (stereo not drawn)
3. Cc1cc(NC(=O)C2(C)Oc3cccnc3NC2=O)ccc1F (stereo not drawn)
4. CCCC(=O)Nc1nc2ccc(CCC(=O)Nc3cc(Cl)c(OC)cc3OC)cc2s1
5. Cc1cc(Cl)ccc1NS(=O)(=O)c1ccc2onc(C(=O)N3CCCC3)c2c1
6. Cc1nc(-c2cc3ccccc3nc2N2CCN(C(=O)Cc3ccccc3)CC2)no1

1. 560
2. 755
3. 739
4. 920
5. 1030
6. 934

State recorded RP-LC retention time for all listed compounds.
1. COc1ccc(-n2nnc(C(=O)O)c2-c2ccccc2)cc1OC
2. CCNC(=O)C1CCCN(C(=O)Nc2ccc(NC(=O)Nc3ccccc3F)cc2)C1 (stereo not drawn)

1: 691; 2: 689

State recorded RP-LC retention time for all listed compounds.
1. CCOc1ccc2nc(C(=O)NC3CCCC3)cn2n1
2. Cc1cc(CNC(=O)c2cc3ccccc3o2)c(C)o1
3. CC(C)NC(=O)c1ccc(OCC2CCCN2C(=O)c2ccc(C#N)cc2)cc1 (stereo not drawn)
4. Cc1cc2cc(CNC(=O)Nc3cccc(Cl)c3)ccc2[nH]1
5. Cn1nc(-c2nc(C3CC3)no2)c2c1CCN(C(=O)c1ccc(F)c(Cl)c1)C2
6. O=C(N[C@@H]1CN(Cc2cc(F)c(F)cc2F)C[C@H]1CO)C1CCC1

822
852
734
843
900
599

----------
Provide the reported RP-LC retention time of each item.
PROTOCOL: gradient 5% acetonitrile 3 min, to 50% in 2 min, to 85% in 15 min, held 3 min, 100 µL/min
ASSAY_CONTEXT: column: Zorbax Extend-C18 2.1 x 50 mm; eluents: water / acetonitrile, 0.1% formic acid
Numbers only, in s.

These solved cases illustrate the format of a correct answer.
compound=CCC(=O)Nc1ccc(N(C)CCc2c(C)nn(C)c2C)c(C(=O)O)c1 measurement_unit=s measured_number=572
compound=Cc1nc(-c2noc(-c3ccncc3)n2)cn1CC(=O)N1CCN(c2ccc(F)cc2)CC1 measurement_unit=s measured_number=689
compound=COc1cccc(CN2N=C(C(=O)N3CCOCC3)S(=O)(=O)c3ccc(Cl)cc32)c1 measurement_unit=s measured_number=887
compound=CC(C)Cn1c(=O)c2ccccc2n(Cc2nc(-c3ccc(Cl)cc3)no2)c1=O measurement_unit=s measured_number=1240
compound=CCN1C(=O)COc2cc(-c3noc(C(=O)NCCC(C)C)n3)ccc21 measurement_unit=s measured_number=979

State recorded RP-LC retention time for all listed compounds.
1. COc1ccccc1C(=O)N1CC(Oc2ccc(-c3nc(-c4ccccc4)no3)cc2)C1
2. CCOc1cc(=O)n2c(c1C(=O)NC1CCCCC1)CCCCC2
3. CCN1C(=O)c2cccnc2Sc2cc(CNC(=O)c3cccc4[nH]ccc34)ccc21
4. O=C(Nc1ccc(-n2cnnn2)cc1)C1CN(c2nc3ccccc3s2)C1
5. O=C(CSc1ccc(N2CCCC(C(=O)NC3CC3)C2)nn1)NCc1ccc(F)cc1 (stereo not given)
6. Cc1c(F)cccc1NC(=O)N1CCC(c2cc(=O)n3nccc3n2C)CC1
7. C=CCn1c(=O)c2ccccc2n(Cc2nc(-c3ccc(Cl)cc3)no2)c1=O

[1160, 734, 721, 659, 622, 690, 1130]

----------
PROTOCOL: gradient 5% acetonitrile 3 min, to 50% in 2 min, to 85% in 15 min, held 3 min, 100 µL/min
ASSAY_CONTEXT: column: Zorbax Extend-C18 2.1 x 50 mm; eluents: water / acetonitrile, 0.1% formic acid
MEASUREMENT_KIND: RP-LC retention time (s)
Answers are plain numbers, in s.

State recorded RP-LC retention time for all listed compounds.
1. CCCc1noc(-c2ccnc(-n3ncc(C(=O)Nc4ccc(Cl)cc4)c3C)c2)n1
2. COc1ccccc1N=NNc1ccccc1OC
3. O=C(Nc1ccccc1F)N1CCCC1c1nc(-c2ccc(F)cc2F)no1 (centres undefined)
4. CCCc1noc(-c2ccnc(-n3cnc(C(=O)NC4CCCCCC4)c3)c2)n1

1270
933
937
1060

State recorded RP-LC retention time for all listed compounds.
1. O=C(Nc1ccc(F)c(Cl)c1)c1c(O)c2cccnc2n(Cc2ccccc2)c1=O
2. Cc1ccc(Cn2cccc2-c2nc(-c3ccc(F)cc3)no2)cc1
3. Cc1ccc(C)c(NC(=O)Cn2c(N3CCOCC3)nc(C)cc2=O)c1
4. CCc1cc(-c2csc(S(=O)(=O)NCCc3ccc(Cl)cc3)c2)on1
5. O=C(C1=CN(c2cccc(Br)c2)c2ccccc2S1(=O)=O)N1CCOCC1
6. O=C(Nc1ccc2nc(N3CCN(C4CCCCC4)CC3)cc(C(=O)O)c2c1)c1ccccc1Cl
7. CCOC(=O)N1CCN(C(=O)CSc2nnc3n2CCN3c2ccc(OC)cc2)CC1
8. Cc1cccc(Cn2nc3ccc(S(=O)(=O)N4CCCCC4)cn3c2=O)c1

1230
1460
770
1050
788
627
623
915

State recorded RP-LC retention time for all listed compounds.
1. Cn1cc2c(n1)c(=O)n(Cc1ccc(F)cc1)c(=O)n2CC(=O)Nc1cc(F)ccc1F
2. CCN1CCn2cc(S(=O)(=O)Nc3ccccc3F)cc2C1=O
3. CCn1nccc1C(=O)N1CCCC1c1ccc(F)cc1 (centres undefined)
4. CC1CCN(C(=O)C2CCc3sc(C(=O)N4CCOCC4)cc3C2)CC1 (centres undefined)

[841, 1070, 785, 776]

----------
PROTOCOL: gradient 5% acetonitrile 3 min, to 50% in 2 min, to 85% in 15 min, held 3 min, 100 µL/min
ASSAY_CONTEXT: column: Zorbax Extend-C18 2.1 x 50 mm; eluents: water / acetonitrile, 0.1% formic acid
Given measured RP-LC retention time, output Fulfilled if it is greater than or equal to 800 s and Not fulfilled if not.

compound=CCCS(=O)(=O)c1nc2ccc(NS(=O)(=O)c3cc(F)cc(F)c3)cc2s1 group_label=Fulfilled
compound=COc1cccc(-c2nnc(Cc3nc(-c4ccc(OC)c(OC)c4)no3)o2)c1 group_label=Fulfilled
compound=Cc1ccc(C)c(N2CCN(c3ccnc(SCC(=O)NC4CCCC4)n3)CC2)c1 group_label=Fulfilled
compound=CC1=C(c2ccc(C)cc2)S(=O)(=O)N=C1N1CCCN(C(=O)Cn2ccnc2C)CC1 group_label="Not fulfilled"
compound=CCc1c(C(=O)OC)ncc2[nH]c3cc(OC)c(OC)cc3c12 group_label="Not fulfilled"

Is RP-LC retention time at least 800 s? Consider COc1ccccc1NC(=O)NC1CCN(c2ccc(F)c(C)c2)C1=O (configuration not stated)
Fulfilled

Is RP-LC retention time at least 800 s? Consider `COc1ccccc1CC(=O)N1CCCn2nc(-c3ccc(Cl)cc3)cc2C1`
Fulfilled

Is RP-LC retention time at least 800 s? Consider `COc1cccc(CCC(=O)Nc2cnn(-c3ncc(N4CCCC4)cn3)c2)c1`
Fulfilled

Is RP-LC retention time at least 800 s? Consider `CCOc1ccc(-n2ccn3cc(-c4cccc(OC)c4)nc3c2=O)cc1`
Fulfilled
